Target: T1, Oct6 DNA-binding domain (BD-Oct6) (Mus musculus (B6), UniProt P21952 317-416)
T1 sequence: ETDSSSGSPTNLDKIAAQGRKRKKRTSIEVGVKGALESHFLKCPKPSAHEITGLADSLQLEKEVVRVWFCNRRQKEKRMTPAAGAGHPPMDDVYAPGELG
Experiment: EMSA; 10% glycerol, 20 mM HEPES pH 7.8, 45 mM KCl, 10 mM NaCl, 1 mM EDTA, 1 mM DTT, 0.2 ug/uL BSA, 0.1% NP-40, 50 ng poly-dIdC; 20 ng each GST protein; room temperature 30 min (heterodimers 4 C); 6% PAGE 0.25x TBE
Details: protein: recombinant; tags: GST (N-terminal, pGEX-6P-1); label: 32P-dCTP fill-in of the 5' (dG)5 overhangs of both strands (Methods; control probes are given with GGG)
readout.name: binding result

[[record]]
binder = "53 (dsDNA) DNA 1: GGGGGTGCTTGTGACAAATCTGTCAATTTCTGGTGGGGGCCCCCC DNA 2: GGGGGGCCCCCACCAGAAATTGACAGATTTGTCACAAGCACCCCC"
endpoint_value = "no binding"

[[record]]
binder = "10 (dsDNA) DNA 1: GGGGGACACACACACAAAGATTTATTTATTCATTTAATCCCCC DNA 2: GGGGGATTAAATGAATAAATAAATCTTTGTGTGTGTGTCCCCC"
endpoint_value = "no binding"

[[record]]
binder = "45 (dsDNA) DNA 1: GGGGGAAATGTGCTTTATTTCACAAAATCAACAACCCCC DNA 2: GGGGGTTGTTGATTTTGTGAAATAAAGCACATTTCCCCC"
endpoint_value = "binds"

[[record]]
binder = "16b (dsDNA) DNA 1: GGGGGGTAGCTTCACAAAGTGATTAACACATGGATACCCCC DNA 2: GGGGGTATCCATGTGTTAATCACTTTGTGAAGCTACCCCCC"
endpoint_value = "binds"

[[record]]
binder = "11 (dsDNA) DNA 1: GGGGGGTGGGGTACAAAAATGGCCCTTTGTGATCAACTCCCCC DNA 2: GGGGGAGTTGATCACAAAGGGCCATTTTTGTACCCCACCCCCC"
endpoint_value = "no binding"

